Reported Caco-2 Cell Mean Total Transmission rate 4 h (%) is given for each of the following compounds.
- Tested on: Caco-2 cell
- ASSAY SUMMARY: Caco-2 monolayer cell transmission rate (in vitro intestinal absorption model)
- Assay type: in vitro ADME, human
- STATED CONDITIONS: Caco-2 monolayer, 4 h, mean of 3 repeats, HPLC-ELSD
Structures can show the parent of a compound that is named as a salt.
MEASUREMENT LABEL: Caco-2 Cell Mean Total Transmission rate 4 h (%)

{"columns": ["COMPOUND", "TARGET OF ASSAY", "REPORTED MEASUREMENT"],
 "data": [
  ["CCOC(=O)CC1(CNC(=O)CCNC(=O)c2cccnc2)CCCCC1", "Caco-2 cell", 9.00],
  ["CC(C)C[C@@H](NC(=O)OC(C)(C)C)C(=O)NCC1(CC(=O)O)CCCCC1", "Caco-2 cell", 29],
  ["CCOC(=O)CC1(CNC(=O)C(NC(=O)CC2(CN)CCCCC2)c2ccccc2)CCCCC1 (stereo not shown)", "Caco-2 cell", 8.58],
  ["CCOC(=O)CC1(CNC(=O)C(CC(C)C)NC(=O)CC2(CN)CCCCC2)CCCCC1 (stereo not shown)", "Caco-2 cell", 12.22],
  ["CSCCC(NC(=O)OC(C)(C)C)C(=O)NCC1(CC(=O)O)CCCCC1 (stereo not shown)", "Caco-2 cell", 26],
  ["CCOC(=O)CC1(CNC(=O)C(N)c2cc3ccccc3[nH]2)CCCCC1 (stereo not shown)", "Caco-2 cell", 9.97],
  ["CCOC(=O)C(Cc1ccccc1)NC(=O)C(C)NC(=O)CC1(CN)CCCCC1 (stereo not shown)", "Caco-2 cell", 2.83],
  ["CC(C)(C)OC(=O)NC(Cc1ccccc1)C(=O)NCC1(CC(=O)O)CCCCC1 (stereo not shown) [Embodiment 15]", "Caco-2 cell", 0.93],
  ["CCOC(=O)CC1(CNC(=O)C2CSCN2C(=O)OC(C)(C)C)CCCCC1 (stereo not shown)", "Caco-2 cell", 6.13],
  ["CCOC(=O)CC1(CNC(=O)C(Cc2ccccc2)NC(=O)CC2(CN)CCCCC2)CCCCC1 (stereo not shown)", "Caco-2 cell", 9.26],
  ["NCC1(CC(=O)O)CCCCC1 [Control 1, Gabapentin HCl, reference compound]", "Caco-2 cell", 1.1],
  ["CC(C)(C)OC(=O)NC(C(=O)NCC1(CC(=O)O)CCCCC1)c1ccccc1 (stereo not shown)", "Caco-2 cell", 3.1],
  ["CCOC(=O)CC1(CNC(=O)C(NC(=O)OC(C)(C)C)c2ccc(O)cc2)CCCCC1 (stereo not shown)", "Caco-2 cell", 5.05],
  ["NCC1(CC(=O)N2CCCC2C(=O)NCC2(CC(=O)O)CCCCC2)CCCCC1 (stereo not shown)", "Caco-2 cell", 10.73],
  ["CC(C)(C)OC(=O)NC(Cc1ccccc1)C(=O)NCC1(CC(=O)O)CCCCC1 (stereo not shown) [Embodiment 4]", "Caco-2 cell", 10],
  ["CC(C)(C)OC(=O)NCC1(CC(=O)NCC2(CC(=O)O)CCCCC2)CCCCC1", "Caco-2 cell", 27]
]}

* * *

- System: Caco-2 cell
- ASSAY SUMMARY: Caco-2 monolayer cell transmission rate (in vitro intestinal absorption model)
- Type: in vitro ADME, human
- STATED CONDITIONS: human, Caco-2, 4 h
Where Caco-2 Cell Mean Total Transmission rate 4 h (%) equals or exceeds 10%, the correct label is condition met; where it does not, the label is condition not met.

{"columns": ["MOLECULE", "CAT"],
 "data": [
  ["CCOC(=O)CC1(CNC(=O)C(N)c2ccccc2)CCCCC1 (centres unmarked) [Embodiment 30]", "condition met"],
  ["CCOC(=O)CC1(CNC(=O)c2ccc(O)c(OC)c2)CCCCC1 [Embodiment 24]", "condition met"],
  ["CCOC(=O)CC1(CNC(=O)c2cccnc2)CCCCC1 [Embodiment 27]", "condition not met"],
  ["CCOC(=O)CC1(CNC(=O)C2CCC(=O)N2)CCCCC1 (centres unmarked) [Embodiment 25]", "condition not met"],
  ["CCOC(=O)CC1(CNC(=O)C2CCC(CN)CC2)CCCCC1 (centres unmarked) [Embodiment 19]", "condition met"],
  ["CCOC(=O)CC1(CNC(=O)C2(N)CCCCC2)CCCCC1 [Embodiment 9]", "condition met"],
  ["CCOC(=O)CC1(CNC(=O)C2CSCN2)CCCCC1 (centres unmarked) [Embodiment 34]", "condition not met"],
  ["CCOC(=O)CC1(CNC(=O)C(N)CCc2ccccc2)CCCCC1 (centres unmarked) [Embodiment 31]", "condition met"],
  ["CCOC(=O)CC1(CNC(=O)C2CCNCC2)CCCCC1 [Embodiment 7]", "condition not met"],
  ["CCOC(=O)CC1(CNC(=O)c2ccccc2CN)CCCCC1 [Embodiment 18]", "condition not met"],
  ["CCOC(=O)CC1(CNC(=O)C(N)CCc2ccccc2)CCCCC1 (centres unmarked) [Embodiment 32]", "condition not met"],
  ["CCOC(=O)CC1(CNC(=O)C(N)C(C)CC)CCCCC1 (centres unmarked) [Embodiment 17]", "condition not met"],
  ["CCOC(=O)CC1(CNC(=O)C(C)N)CCCCC1 (centres unmarked) [Embodiment 28]", "condition not met"],
  ["CCOC(=O)CC1(CNC(=O)C(N)CC(C)C)CCCCC1 (centres unmarked) [Embodiment 13]", "condition met"],
  ["CCOC(=O)CC1(CNC(=O)c2ccccc2)CCCCC1 [Embodiment 8]", "condition met"],
  ["CCOC(=O)CC1(CNC(=O)C(N)c2ccc(O)cc2)CCCCC1 (centres unmarked) [Embodiment 35]", "condition met"],
  ["CCOC(=O)CC1(CNC(=O)C(C)N)CCCCC1 (centres unmarked) [Embodiment 11]", "condition met"],
  ["CCOC(=O)CC1(CNC(=O)C(N)CO)CCCCC1 (centres unmarked) [Embodiment 14]", "condition met"],
  ["CCOC(=O)CC1(CNC(=O)C(N)CCSC)CCCCC1 (centres unmarked) [Embodiment 26]", "condition not met"],
  ["CCOC(=O)CC1(CNC(=O)C(N)C(C)C)CCCCC1 (centres unmarked) [Embodiment 29]", "condition not met"],
  ["CC(C)(C)OC(=O)NC(CO)C(=O)NCC1(CC(=O)O)CCCCC1 (centres unmarked) [Embodiment 10]", "condition met"],
  ["CCOC(=O)CC1(CNC(=O)C(N)Cc2ccccc2)CCCCC1 (centres unmarked) [Embodiment 16]", "condition met"]
]}
